Reported TGI values are given for each entry in this list.
# Test system: DU-145 prostate
# Assay Remarks: NCI tumour cell line growth inhibition, 48 h

// known answers, use as guide
INSERT INTO measurements (chemical_string, metric, test_result) VALUES
  ('O=C1OCC(c2ccc(Cl)cc2)=C1Cl', 'TGI', '> 100 µM'),
  ('CC(=O)Nc1ccc(S(=O)(=O)N=S(C)C)cc1', 'TGI', '> 100 µM'),
  ('COc1ccc(N=Nc2ccc3oc(=O)c(C(=O)Nc4ccccc4C)cc3c2)cc1', 'TGI', '> 10 µM');

Okay, next one:
Look up TGI with DU-145 prostate for this compound: Cc1nc2cc3ccccc3cc2[nH]c1=O
> 100 µM
